Test system: Plasmodium falciparum NF54 asexual blood stage
assay: % inhibition of asexual blood stage proliferation (pLDH); higher = more inhibition
study_conditions: 20 µM; 72 h
So basically: % inhibition of asexual blood stage proliferation at 30% or higher? That is met. Lower than 30%? That is not met.

Say whether O=C(NC12CC3CC(CC(C3)C1)C2)c1cc2ccccc2[nH]1 shows % inhibition of asexual blood stage proliferation of 30% or more. met

Say whether C[C@H]1CC[C@]2(NC1)O[C@H]1C[C@H]3[C@@H]4CC[C@H]5C[C@@H](O)CC[C@]5(C)[C@H]4CC[C@]3(C)[C@H]1[C@@H]2C shows % inhibition of asexual blood stage proliferation of 30% or more. met

Say whether CCN1CCN(Cc2nc3ccc([N+](=O)[O-])cc3c(=O)n2-c2ccccc2F)CC1 shows % inhibition of asexual blood stage proliferation of 30% or more. not met

Say whether Nc1c(C(=O)NCc2ccco2)c2nc3ccccc3nc2n1CCN1CCCCC1 shows % inhibition of asexual blood stage proliferation of 30% or more. met

Say whether COC(=O)Nc1nc2ccccc2[nH]1 shows % inhibition of asexual blood stage proliferation of 30% or more. not met

* * *

Test system: Plasmodium falciparum NF54 stage IV/V gametocytes
assay: % inhibition of gametocyte viability (ATP bioluminescence); higher = more inhibition
study_conditions: 1 µM; 24 h
experimental_endpoint: % inhibition of gametocyte viability

Read the entry Nc1c(C(=O)NCc2ccco2)c2nc3ccccc3nc2n1CCN1CCCCC1 and write its reported % inhibition of gametocyte viability. 51.4%

Read the entry C[N+]1(C)CCCC(OC(=O)C(O)(c2ccccc2)c2ccccc2)C1 (stereo unspecified) and write its reported % inhibition of gametocyte viability. < 0%

Read the entry COc1cc(C(C)(C)CCCC(C)C)cc(OC)c1OC and write its reported % inhibition of gametocyte viability. 2.47%

Read the entry COC(=O)Nc1nc2ccccc2[nH]1 and write its reported % inhibition of gametocyte viability. 1.54%

Read the entry NC1(C(=O)O)CCP(=O)(O)CC1 (stereo unspecified) and write its reported % inhibition of gametocyte viability. < 0%

Read the entry CC(C)Oc1cccc(NC(=O)c2ccccc2C(F)(F)F)c1 and write its reported % inhibition of gametocyte viability. 3.08%

* * *

Tested on: Plasmodium falciparum NF54 stage IV/V gametocytes
assay: % inhibition of gametocyte viability (luciferase reporter); higher = more inhibition
study_conditions: 5 µM; 48 h
Task for the reader: assign each of the following molecules its reported % inhibition of gametocyte viability.

Read the entry COC(=O)Nc1nc2ccccc2[nH]1 and write its reported % inhibition of gametocyte viability. < 0%

Read the entry O=C(NC12CC3CC(CC(C3)C1)C2)c1cc2ccccc2[nH]1 and write its reported % inhibition of gametocyte viability. < 0%

Read the entry COc1cc(C(C)(C)CCCC(C)C)cc(OC)c1OC and write its reported % inhibition of gametocyte viability. < 0%

Read the entry CN1C(=O)C(c2ccccc2)C(=O)N(c2ccccc2)c2cc(C(F)(F)F)ccc21 (centres undefined) and write its reported % inhibition of gametocyte viability. < 0%

Read the entry C[C@@]1(O)[C@H](O)[C@@H](CO)O[C@H]1n1ccc2c(N)ncnc21 and write its reported % inhibition of gametocyte viability. < 0%

Read the entry Nc1c(C(=O)NCc2ccco2)c2nc3ccccc3nc2n1CCN1CCCCC1 and write its reported % inhibition of gametocyte viability. 0.236%

Read the entry C[N+]1(C)CCCC(OC(=O)C(O)(c2ccccc2)c2ccccc2)C1 (centres undefined) and write its reported % inhibition of gametocyte viability. 3.73%

Read the entry NC1(C(=O)O)CCP(=O)(O)CC1 (centres undefined) and write its reported % inhibition of gametocyte viability. 9.64%

Read the entry CCCCc1ccc(C(=O)O)nc1 and write its reported % inhibition of gametocyte viability. 6.9%
